Provenance of the data: patent US20250027068

Molecular target: pooled human IgG
measured_metric: Enzyme Activity Endpoint Assay: Fc (ng/µL)
One number for each entry, in ng/µL.

Kindly note the recorded Enzyme Activity Endpoint Assay: Fc for PRT-560 (protein) MANQEIRYSEETPKTITSVWTKGVTPPTDFIYNEDVLHAPYIANQGWYDITKTFNGKDDLLCGAATAGNMLHWWFDQNKEQIERYLKKHPEKQKINFNGEQMFDVKEAIDTKDSQTDSALFEYFKDKAFPYLSTKHLGVFPDHVIDMFINGYRLSLTNHGPTPVKRQTKDPRGGIFDAVFTRGDQSKLLTSRHDFKEKTLKEISDLIKQELTEGKALGLSHTYANVRINHVINLWGADFDAEGNLEAIYVTDSDSNASIGMKKYYVGVNSAGKVAISAKEIEGDNIGAQVLGLFTLSTGQDIWEQTNLEHHHHHH , which is 233
